Recorded max response for the following compounds
Tested on: CRL-7250
method_notes: Cytotoxic Profiling of Annotated Libraries Using Quantitative High-Throughput Screening (AID 1296008); note: % is set by controls: 0 for no effect and ±100 for the full control effect; nearly all actives have a fitted effect of over 60% in size
test_settings: Five cell lines viability, CellTiter-Glo ATP luminescence, 48-72 h; stronger effect = lower value
Records with an inconclusive call do not appear.
Value expressed in %; do not type the unit.

Recorded max response, per entry:
[[record]]
compound = "COc1ccc(S(=O)(=O)N2c3ccc(Cl)cc3[C@@](O)(c3ccccc3Cl)[C@H]2C(=O)N2CCC[C@@H]2C(N)=O)cc1OC"
assay_readout = "max response"
measurement = -16.1

[[record]]
compound = "CC1(C)OC[C@@H]2O[C@@]3(C(=O)O)OC(C)(C)O[C@H]3[C@@H]2O1"
assay_readout = "max response"
measurement = -27.6


--- query ---
Hi! What's the reported max response for `NCc1ccccc1Sc1ccccc1CO` on CRL-7250?
-5.17

###

method_notes: qHTS assay for small molecule antagonists of peroxisome proliferator-activated receptor delta signaling (AID 588535);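 note: cells co-treated with a PPAR-delta agonist as stimulator during compound exposure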
test_settings: HEK293T PPARd-UAS-bla, beta-lactamase FRET ratio, 18 h; 460 nm channel
Records with an inconclusive call do not appear.
assay_readout: max response (%)
Value expressed in %; do not type the unit.

[[record]]
mol = "CCCCCCCC/C=C\\CCCCCCCCN"
measurement = -29.2

[[record]]
mol = "CCCCCCCCCCCCCCCCO"
measurement = -7.5

[[record]]
mol = "CCOc1ccccc1C(N)=O"
measurement = -16.5


--- query ---
Look at this compound and give its reported max response. `NC(=O)c1ccccc1O`
7.67

###

method_notes: qHTS of pediatric cancer cell lines to identify multiple opportunities for drug repurposing: Primary screen for SK-N-SH cells (AID 1347098);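 note: DMSO served as neutral control and bortezomib at 2.3 µM as positive control; % is set by controls: 0 for no effect and ±100 for the full control effect; nearly all actives have a fitted effect of over 65% in size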
test_settings: SK-N-SH viability, CellTiter-Glo luminescence, 48 h; series mostly up to 57 µM
Results filed as inconclusive are left out. Active and inactive are the calls of the source. The call rests on the fitted dose curve; in most records, active means well fitted cell-killing curve with a large enough effect; inconclusive means small, poorly fitted or top-dose-only effect; inactive means no such curve, though single readings can be large or run the other way.
Entry note: the call must match one of 1.0 for active, 0.0 for inactive

Record excerpt, results attached:
[[record]]
compound = "COC(=O)C(c1ccccc1Cl)N1CCc2sccc2C1 (stereo not drawn)"
category_label = 0.0

[[record]]
compound = "CC(=O)Nc1ccc(CC(=O)O)cc1"
category_label = 0.0

[[record]]
compound = "CCOC(=O)c1ccc(N)cc1"
category_label = 0.0


Here's the next entry for you.
Recorded test outcome, item `C=C[C@H]1CN2CC[C@H]1C[C@@H]2[C@@H](O)c1ccnc2ccc(OC)cc12`
0.0

###

Tested on: SKOV3
method_notes: Primary qHTS to identify gynecologic anti-cancer compounds using libraries of approved drugs and bioactive compounds (AID 1345084); note: nearly all actives have a fitted effect of over 55% in size
test_settings: Gynecologic cancer cell panel viability, ATPlite luminescence, 48 h; series mostly up to 57.5 µM
Records with an inconclusive call do not appear. The source made the active and inactive calls. Calls follow the shape of the dose curve; as a rule, active = well fitted cell-killing curve with a large enough effect; inconclusive = small, poorly fitted or top-dose-only effect, or effect the other way; inactive = flat fitted curve, though single readings scatter.
Entry note: the call must match one of active, inactive

Record excerpt, results attached:
[[record]]
compound = "CCCCCCCC/C=C\\CCCCCCCCN"
category_label = "inactive"

[[record]]
compound = "CCCCCCCCCCCCCC[N+](C)(C)Cc1ccccc1"
category_label = "active"

[[record]]
compound = "Cc1cc(NS(=O)(=O)c2ccc(N)cc2)nc(C)n1"
category_label = "inactive"

[[record]]
compound = "NC(=O)n1c(O)c(C(=O)c2cccs2)c2cc(Cl)ccc21"
category_label = "inactive"


Recorded test outcome, item `Cc1cn([C@H]2C[C@H](F)[C@@H](CO)O2)c(=O)[nH]c1=O`
inactive

// repeat for `O=C(NCCc1c[nH]c2ccccc12)c1cccnc1` and report
inactive

// repeat for CCCCC(CC)COC(=O)/C=C/c1ccc(OC)cc1 (configuration not stated) and report
inactive

// repeat for `CC(C)Cc1ccc(CC(=O)O)cc1` and report
inactive

// repeat for `CC(=O)Nc1ncc([N+](=O)[O-])s1` and report
inactive

// repeat for `CCCCCCCCCCCCCCCC(=O)O` and report
inactive

// repeat for COC(=O)C(c1ccccc1Cl)N1CCc2sccc2C1 (configuration not stated) and report
inactive

// repeat for `FC(F)(F)C(F)(F)C(F)(F)C(F)(F)C(F)(F)C(F)(F)C(F)(F)C(F)(F)Br` and report
inactive

This collection of values is drawn from PubChem BioAssay (NCATS).
